- Test system: Nucleic Acid
- runDescription: Binding affinity to HIV1 TAR RNA bulgeless tetraloop mutant assessed as association constant at pH 6.8 by ethidium bromide displacement assay based Scatchard analysis method
- Type: nucleic-acid assay
- conditionsUsed: Human immunodeficiency virus 1
measuredQuantity: K (×10⁷ /M)

INSERT INTO results (structuresmiles, measuredquantity, observedvalue) VALUES
  ('NC[C@@H]1O[C@H](O[C@H]2[C@@H](O)[C@H](O[C@@H]3[C@@H](O)[C@H](N)C[C@H](N)[C@H]3O[C@H]3O[C@H](CN)[C@@H](O)[C@H](O)[C@H]3N)O[C@@H]2Cn2cc(CCCc3cn(C[C@H]4O[C@@H](O[C@@H]5[C@@H](O)[C@H](N)C[C@H](N)[C@H]5O[C@H]5O[C@H](CN)[C@@H](O)[C@H](O)[C@H]5N)[C@H](O)[C@@H]4O[C@H]4O[C@@H](CN)[C@@H](O)[C@H](O)[C@H]4N)nn3)nn2)[C@H](N)[C@@H](O)[C@@H]1O', 'K', 7.5);
